The reader will find reported EC50 values listed item by item below.
Biological target: Human TRPML2 (Homo sapiens, UniProt Q8IZK6)
Sequence (Q8IZK6 whole entry): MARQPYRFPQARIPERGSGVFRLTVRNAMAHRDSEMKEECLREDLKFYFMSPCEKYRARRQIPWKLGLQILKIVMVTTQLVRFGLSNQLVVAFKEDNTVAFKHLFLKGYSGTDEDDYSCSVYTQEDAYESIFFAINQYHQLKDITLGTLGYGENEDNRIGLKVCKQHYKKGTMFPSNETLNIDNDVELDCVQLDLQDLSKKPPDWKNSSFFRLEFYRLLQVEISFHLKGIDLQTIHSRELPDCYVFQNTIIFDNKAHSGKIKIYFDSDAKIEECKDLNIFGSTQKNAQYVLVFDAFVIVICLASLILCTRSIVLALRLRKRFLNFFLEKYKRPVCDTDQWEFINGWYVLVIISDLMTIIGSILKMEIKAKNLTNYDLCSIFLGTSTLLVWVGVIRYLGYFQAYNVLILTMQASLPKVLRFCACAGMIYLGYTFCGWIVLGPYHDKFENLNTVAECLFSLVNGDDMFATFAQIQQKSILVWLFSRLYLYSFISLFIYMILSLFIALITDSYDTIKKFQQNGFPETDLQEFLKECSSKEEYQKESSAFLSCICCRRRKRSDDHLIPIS
Assay: Fluorescent TRPML2 assay (as for TRPML1)
Settings: fluorescent calcium assay as for TRPML1, TRPML2 subtype

query: Using the record for C[C@@H]1CN(c2ncnc3c2c(-c2ccncc2F)cn3-c2cc(C#N)ccn2)[C@@H](C)CN1C(=O)C(C)(C)O [Compound 146] , state its measured EC50.
result: > 2000 nM

query: State, in one line, measured EC50 of CC[C@H]1CN(C(=O)C(C)(C)O)[C@H](C)CN1c1ncnc2c1c(-c1ccccc1)cn2-c1cc(C#N)ccn1 [Compound 129]
result: > 2000 nM

query: Kindly indicate its recorded EC50. Item: C[C@@H]1CN(c2ncnc3c2c(-c2ccccc2F)cn3-c2cc(C#N)ccn2)[C@@H](C)CN1C(=O)C1(O)CCCC1 [Compound 121]
result: 500 to 2000 nM

query: Give the reported value of EC50 for this record: C[C@@H]1CN(c2ncnc3c2c(-c2ccncc2)cn3-c2cc(C#N)ccn2)[C@@H](C)CN1C(=O)C(C)(C)O [Compound 125]
result: > 2000 nM

query: Supply recorded EC50 for C[C@@H]1CN(c2ncnc3c2c(-c2ccccc2)cn3-c2cc(C#N)ccn2)[C@@H](C)CN1C(=O)CC(O)(C(F)(F)F)C(F)(F)F [Compound 161] here.
result: 500 to 2000 nM

query: Identify measured EC50 corresponding to CCOC(C)(C)C(=O)N1C[C@H](C)N(c2ncnc3c2c(-c2ccccc2F)cn3-c2cc(C#N)ccn2)C[C@H]1C [Compound 164]
result: < 100 nM

query: Indicate the recorded EC50 value for this compound: CCOC(C)(C)C(=O)N1C[C@H](C)N(c2ncnc3c2c(-c2ccccc2)cn3-c2cc(C#N)ccn2)C[C@H]1C [Compound 170]
result: 100 to 500 nM

query: Input C[C@@H]1CN(c2ncnc3c2c(-c2ccccc2)cn3-c2cc(C#N)ccn2)[C@@H](C)CN1C(=O)C(O)(C(F)(F)F)C(F)(F)F [Compound 110] , output reported EC50.
result: > 2000 nM

query: For the compound C[C@@H]1CN(c2ncnc3c2c(-c2ccncc2)cn3-c2cc(C#N)ccn2)[C@@H](C)CN1C(=O)C1(O)CCCCC1 [Compound 151] , give its measured EC50 value.
result: 500 to 2000 nM

query: Report measured EC50; entry is CCOC(C)(C)C(=O)N1C[C@H](C)N(c2ncnc3c2c(N2CCC2)cn3-c2cc(C#N)ccn2)C[C@H]1C [Compound 173]
result: 500 to 2000 nM

query: Identify measured EC50 corresponding to C[C@@H]1CN(c2ncnc3c2c(-c2ccncc2)cn3-c2cc(C#N)ccn2)[C@@H](C)CN1C(=O)C1(O)CCCC1 [Compound 150]
result: 500 to 2000 nM

query: Look up EC50 of CCOC(C)(C)C(=O)N1C[C@H](C)N(c2ncnc3c2c(-c2ccncc2)cn3-c2cc(C#N)ccn2)C[C@H]1C [Compound 171] and report it.
result: > 2000 nM
